# k obs, second-order association rate constant for cyanide binding per record follows
Details: calculated from T and 500 μM cyanide, 1/T = k obs[CN−]
Please give the number followed by its unit.

Worked examples, 3 molecules total:
# Molecule, Result
measured = [
    ("WTox (A isomer): oxidized wild-type human Ngb (Cys46-Cys55 disulfide bridge), A heme conformer (protein, UniProt Q9NPG2 1-151, looked up, oxidized, heme A isomer) Neuroglobin: MERPEPELIRQSWRAVSRSPLEHGTVLFARLFALEPDLLPLFQYNCRQFSSPEDCLSSPEFLDHIRKVMLVIDAAVTNVEDLSSLEEYLASLGRKHRAVGVKLSSFSTVGESLLYMLEKCLGPAFTPATRAAWSQLYGAVVQAMSRGWDGE", "1.75 M⁻¹ s⁻¹"),
    ("WTox (B isomer): oxidized wild-type human Ngb (Cys46-Cys55 disulfide bridge), B heme conformer (protein, UniProt Q9NPG2 1-151, looked up, oxidized, heme B isomer) Neuroglobin: MERPEPELIRQSWRAVSRSPLEHGTVLFARLFALEPDLLPLFQYNCRQFSSPEDCLSSPEFLDHIRKVMLVIDAAVTNVEDLSSLEEYLASLGRKHRAVGVKLSSFSTVGESLLYMLEKCLGPAFTPATRAAWSQLYGAVVQAMSRGWDGE", "0.34 M⁻¹ s⁻¹"),
    ("WTred (A isomer): DTT-reduced wild-type human Ngb, A heme conformer (protein, UniProt Q9NPG2 1-151, looked up, DTT-reduced, heme A conformer) Neuroglobin: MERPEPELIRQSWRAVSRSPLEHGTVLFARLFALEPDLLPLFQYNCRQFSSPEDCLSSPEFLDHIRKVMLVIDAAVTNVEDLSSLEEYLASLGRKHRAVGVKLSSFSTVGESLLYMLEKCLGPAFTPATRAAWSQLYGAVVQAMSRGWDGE", "0.26 M⁻¹ s⁻¹"),
]

I am curious: what k obs, second-order association rate constant for cyanide binding value has been reported for WTred (B isomer): DTT-reduced wild-type human Ngb, B heme conformer (protein, UniProt Q9NPG2 1-151, looked up, DTT-reduced, heme B conformer) Neuroglobin: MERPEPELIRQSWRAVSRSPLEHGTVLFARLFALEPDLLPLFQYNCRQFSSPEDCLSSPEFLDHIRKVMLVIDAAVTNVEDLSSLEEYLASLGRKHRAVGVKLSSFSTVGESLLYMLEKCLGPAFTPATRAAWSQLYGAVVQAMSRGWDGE ?
0.12 M⁻¹ s⁻¹
